B1: Segment polarity protein dishevelled homolog DVL-3, residues 2 to 81; numbered along this chain, Q92997 (parent)
chain: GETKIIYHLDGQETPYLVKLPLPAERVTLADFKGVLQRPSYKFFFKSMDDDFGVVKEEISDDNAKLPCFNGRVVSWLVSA

Variants of: B1
Test: abundance fitness (aPCA) (normalised: wild type 0, dead -1); higher = more abundant; growth selection in yeast, the domain comes from the species named
Conditions: Homo sapiens
variants and their reported abundance fitness
Would you mind answering with just the numeric figure?

GETKIIYHLDGQETPYLVKLPLPAERVTLADFKGVLQRPSYKFFFKSMDDDFSVVKEEISDDNAKLPCFNGRVVSWLVSA [G53S] : 0.153

Given the entry GETKIIYHLDGQETPYLVKLPLPAERVTLADFNGVLQRPSYKFFFKSMDDDFGVVKEEISDDNAKLPCFNGRVVSWLVSA [K33N] , report its measured abundance fitness.
-0.087

Given the entry GETKIIYHLDGQETPYLVKLPLPYERVTLADFKGVLQRPSYKFFFKSMDDDFGVVKEEISDDNAKLPCFNGRVVSWLVSA [A24Y] , report its measured abundance fitness.
-0.325

Given the entry GETKIIYHLDGQETPYLVKLPLPAERVTLADFKGVLQRPSYKFFFKSMDDDFGVVKEEASDDNAKLPCFNGRVVSWLVSA [I59A] , report its measured abundance fitness.
-0.419

Given the entry GETKIIYHLDGQETPYLVKLPLPAERVTLADFKGVLQRPSYKFFFKSMDDDFGVVKEEISDDNAKLPFFNGRVVSWLVSA [C68F] , report its measured abundance fitness.
-0.112
